System: NCI-H226 lung
test.description: NCI tumour cell line growth inhibition, 48 h
Reported TGI values for a set of molecules

Known TGI results, listed for orientation:
>  <molecule>
COc1cc(C2Cc3ncccc3-c3[nH]c(=O)c4cccnc4c32)cc(OC)c1OC (stereo unspecified)

>  <TGI>
> 100 µM

$$$$
>  <molecule>
CC(C)(CN1CCCCC1)C(=O)/C=C/c1ccc(/C=C/C(=O)C(C)(C)CN2CCCCC2)cc1

>  <TGI>
3.77 µM

$$$$

Continue with the molecule presented below.
TGI reported for this molecule CC(C)(C)c1ccc(S(=O)(=O)Oc2ccc3c4c(c(=O)oc3c2)CCCCC4)cc1 : > 100 µM

---

System: HT29 colon
test.description: NCI tumour cell line growth inhibition, 48 h
Catalogue of compounds with associated TGI

Example entries begin here.
>  <compound>
COc1ccc(C2N(c3ccc(F)cc3)C(=O)N3C(c4ccc(OC)cc4)N(c4ccc(F)cc4)C(=O)N23)cc1 (stereo not given)

>  <recorded.metric>
TGI

>  <value.reported>
> 100 µM

$$$$
>  <compound>
COC(=O)C(NC(=O)C(CC(=O)OC(C)(C)C)NC(=O)OC(C)(C)C)C(O)c1ccccc1 (stereo not given)

>  <recorded.metric>
TGI

>  <value.reported>
> 100 µM

$$$$

The recorded TGI for CC1=CC(=O)CC(C)(C)C1/C=C/C(C)=C/C=C/C(C)=C/C=C/C=C(C)/C=C/C=C(C)/C=C/C1C(C)=CC(=O)CC1(C)C (stereo not given) is > 100 µM

The compound listed as Cc1c(N2C(=O)/C(=C/c3ccc(Cl)cc3)N=C2c2ccccc2)c(=O)n(-c2ccccc2)n1C has a reported TGI of 79.8 µM

Entry COc1ccc(/C=C(/C#N)C(N)=O)c(OC)c1 ; TGI = > 100 µM

---

Tested on: MDA-MB-231 breast
test.description: NCI tumour cell line growth inhibition, 48 h
recorded.metric: TGI (µM)
Give just the numeric value; µM need not be written.

Measured TGI of COc1ccc(C2=N[C@@H](Cc3ccccc3)C(=O)Nc3ccsc32)cc1 : 29.1

---

Quick list: TGI per entry.
Tested on: EKVX NSCLC
test.description: NCI tumour cell line growth inhibition, 48 h

>  <compound>
COc1ccc(/C=C(/C#N)C(N)=O)c(OC)c1

>  <TGI>
> 100 µM

$$$$

// sample CCCCCN(CCCCC)C(=O)[C@@H](CCC(=O)O)NC(=O)c1cc2ccccc2[nH]1 , its TGI was > 100 µM

---

Tested on: NCI-H226 lung
test.description: NCI tumour cell line growth inhibition, 48 h
Below, each entry is listed with its recorded TGI.
Provide the reading as a plain figure in µM.

Worked examples follow.
>  <compound>
Cc1coc2c1C[C@@]1(C)[C@H](CCC[C@@H]1C)[C@H]2O

>  <measured.target>
NCI-H226 lung

>  <unit.annotation>
µM

>  <TGI>
56

$$$$
>  <compound>
COc1ccc(/C=C/C(=O)c2cc(OC)c(OC)c(OC)c2)cc1OCC(=O)Nc1nc2ccc(OC(F)(F)F)cc2s1

>  <measured.target>
NCI-H226 lung

>  <unit.annotation>
µM

>  <TGI>
32.1

$$$$
>  <compound>
COC(=O)/C=C1\C(=O)N(C(C)=O)c2ccc(Br)cc21

>  <measured.target>
NCI-H226 lung

>  <unit.annotation>
µM

>  <TGI>
29.4

$$$$

Kindly consider the entry below.
The compound listed as COC(=O)C(N)CCCC(N)C(=O)NC(C)C(=O)NC(CCC(=O)NCCNCCNc1c2ccccc2nc2cccc([N+](=O)[O-])c12)C(N)=O (stereo not given) has a reported TGI of 39.4

This collection of values is drawn from PubChem BioAssay (NCI).
